Origin of measurements: patent US20250034136A1

test system: p21 induction in HCT116 cells; test: p21 induction in HCT116 cells; assay type: cell-based; details: Homo sapiens, HCT-116, 24 h, HCT116 cells, 24 h compound incubation; read-out: P21_EC50
measure: EC50

Past entries and their recorded results:
INSERT INTO assay_data (molecule, test_result) VALUES
  ('CCc1c(N2CCN(C(=O)c3ncnc(C)c3O)[C@H]3CC[C@@H]32)c(=O)c2nc(NC)cnc2n1CC(=O)Nc1ccc(C(F)(F)F)cc1Cl (racemic)', '< 500 nM'),
  ('CCc1c(N2CCN(C(=O)c3ncnc(C)c3O)C3CCC32)c(=O)c2nc(N(C)C)cnc2n1CC(=O)Nc1ccc(C(F)(F)F)cc1Cl (racemic)', '< 500 nM'),
  ('CCc1c(N2CCN(C(C)=O)CC2)c(=O)c2ncc(C)nc2n1CC(=O)Nc1ccc(C(F)(F)F)cc1Cl', '> 5000 nM'),
  ('CCc1c(N2CCN(C(=O)c3ncnc(C)c3O)CC2)c(=O)c2nc(N3CCC[C@H]3C)cnc2n1CC(=O)Nc1ccc(C(F)(F)F)cc1Cl', '500 to 2000 nM'),
  ('CCc1c(N2CCN(C(=O)c3ncnc(C)c3O)CC2)c(=O)c2nc(C3CC3)c(C)nc2n1CC(=O)Nc1ccc(C(F)(F)F)cc1Cl', '500 to 2000 nM'),
  ('CCc1c(N2CCN(C(=O)c3c(O)cccc3O)CC2)c(=O)c2ncc(C)nc2n1CC(=O)Nc1ccc(C(F)(F)F)cc1Cl', '> 5000 nM');

Now consider a different molecule.
EC50 lookup needed for CCc1c(N2CCN(C(=O)c3ncnc(C)c3O)[C@@H]3CC[C@H]32)c(=O)c2nc(N(C)C)cnc2n1CC(=O)Nc1ccc(C(F)(F)F)cc1Cl (single isomer, unassigned) , thanks.
2000 to 5000 nM

---

Here the recorded EC50 is given for each entry.
tested on: p21 induction in HCT116 cells; test: p21 induction in HCT116 cells; format: cell-based; conditions: Homo sapiens, HCT-116, 24 h, HCT116 cells, 24 h compound incubation; read-out: P21_EC50

Past entries and their recorded results:
INSERT INTO assay_data (molecule, measure, test_result) VALUES
  ('CCc1c(N2CCN(C(=O)c3ncnc(C)c3O)[C@@H](C)[C@@H]2C)c(=O)c2nc(N(C)C)cnc2n1CC(=O)Nc1ccc(C(F)(F)F)cc1Cl (single isomer, unassigned)', 'EC50', '0.5 to 2 µM'),
  ('CCc1c(N2CCN(C(=O)c3ncnc(C)c3O)CC2)c(=O)c2nc(N3CC[C@@H](O)C3)cnc2n1CC(=O)Nc1ccc(C(F)(F)F)cc1Cl', 'EC50', '> 5 µM'),
  ('CCc1c(N2CCN(C(=O)c3ncnc(C)c3O)[C@@H]3CCC[C@@H]32)c(=O)c2nc(N(C)C)cnc2n1CC(=O)Nc1ccc(C(F)(F)F)cc1Cl (single isomer, unassigned)', 'EC50', '< 0.5 µM'),
  ('CCc1c(N2CCN(C(=O)c3ncnc(C)c3O)CC2)c(=O)c2nc(OC)c(C)nc2n1CC(=O)Nc1ccc(C(F)(F)F)cc1Cl', 'EC50', '> 5 µM'),
  ('CCc1c(C2CCN(C(=O)c3ncnc(C)c3O)CC2)c(=O)c2nc(N(C)C)cnc2n1CC(=O)Nc1ccc(C(F)(F)F)cc1Cl', 'EC50', '> 5 µM');

Now consider a different molecule.
Give EC50 (p21 induction in HCT116 cells) of the following molecule: C=C(C)c1cnc2c(n1)c(=O)c(N1CCN(C(=O)c3ncnc(C)c3O)CC1)c(CC)n2CC(=O)Nc1ccc(C(F)(F)F)cc1Cl
0.5 to 2 µM
